- Tested on: RXF 393 renal
- Procedure text: NCI tumour cell line growth inhibition, 48 h
Parameter: log10 of TGI. Scope: all listed entries.
Reported property: log10 of TGI (log10 of the value in µM)

Molecule | log10 of TGI
O=c1c2c3c(sc2[nH]c(=S)n1-c1ccccc1)CCCc1ccc([N+](=O)[O-])cc1-3 | 1.59
O=C(ON=C1c2ccccc2C(Br)C(Br)c2ccccc21)c1ccccc1 (stereo not given) | 1.45
CCN1C(=S)N(CC)C2C1NC(=S)N2/N=C/C=C/c1ccccc1OC (stereo not given) | -0.30
CN(C)CCn1c(=O)c2ccc(NCCCN(C)CCCNc3ccc4c(=O)n(CCN(C)C)c(=O)n5c6ccc(O)cc6c(=O)c3c45)c3c(=O)c4cc(O)ccc4n(c1=O)c23 | -0.67
Cc1nc2ccc(Cl)cc2c(-n2ccnc2)c1CCn1ccnc1 | 1.73
COc1ccc2sc3c(NCCCN)nc4ccccc4c3c(=O)c2c1 | 0.46
CCOC1C=CC(=O)C(CO)O1 (stereo not given) | 1.38
OC1(c2ccc(Cl)c(C(F)(F)F)c2)CCN(CCCC(c2ccc(F)cc2)c2ccc(F)cc2)CC1 | 0.10
O=C(COc1ccc(OCC(=O)N/N=C/c2ccc(-c3ccc(Cl)cc3Cl)o2)c(Cl)c1)N/N=C/c1ccc(-c2ccc(Cl)cc2Cl)o1 | 1.91
O=C(/C=C/c1ccc(O)c(O)c1)OCCc1ccc2ccccc2c1 | 1.33
CNCc1cccc2c1OCCOCCOCCN(C)S(=O)(=O)c1ccc(cc1)-c1cnc(N)c(n1)C(=O)N2 | 0.41
CCCCCCN(CCCCCC)C(=S)N/N=C(\C)c1ccccn1 | 0.44
CC(C)NC(=O)OCc1c(COC(=O)NC(C)C)n(C)c2c1ccc1sccc12 | 1.60
CCn1cc(C(=O)O)c(=O)c2cc(F)c(N3CCN(S(=O)(=O)c4cccc5ccccc45)CC3)cc21 | 1.07
CCCCCCCCCCCC[N+]1(CCCCCCCCCCCC)CCCC(C)C1 (stereo not given) | -0.05
COc1cc2c(N3CCN(C(=O)Nc4ccc(OC(C)C)cc4)CC3)ncnc2cc1OCCCN1CCCCC1 | 1.37
Cn1c([N+](=O)[O-])cnc1C=C1C(=O)c2ccccc2C1=O | 1.01

* * *

- Test system: HCC-2998 colon
- Procedure text: NCI tumour cell line growth inhibition, 48 h
Parameter: TGI. Scope: all listed entries.

Compound | System name | Inequality symbol | TGI [µM]
N#CC1c2ccccc2C=CN1C(=O)CCCl (stereo not given) | HCC-2998 colon | = | 32
OC1(c2ccc(Cl)c(C(F)(F)F)c2)CCN(CCCC(c2ccc(F)cc2)c2ccc(F)cc2)CC1 | HCC-2998 colon | = | 1.43
CNCc1cccc2c1OCCOCCOCCN(C)S(=O)(=O)c1ccc(cc1)-c1cnc(N)c(n1)C(=O)N2 | HCC-2998 colon | = | 30.3
Cc1c(C(=N)C(C#N)C#N)c(=N)oc2c1ccc1ccccc12 | HCC-2998 colon | = | 39.3
COc1ccc2ccc3oc(=O)c(C)cc3c2c1 | HCC-2998 colon | > | 100

* * *

Parameter: TGI. Scope: all listed entries.
- System: SF-539 CNS
- Procedure text: NCI tumour cell line growth inhibition, 48 h

Compound | Units symbol | Inequality symbol | TGI
COc1ccc2c(N)ncc(C#Cc3cc(C(=O)Nc4ccc(CN5CCN(C)CC5)c(C(F)(F)F)c4)cnc3C)c2c1 | µM | = | 1.12
Cc1cccc(NC(=O)c2sc3nc4c(cc3c2N)C(=O)CCC4)c1 | µM | = | 0.616
O=C1[C@@H]2C(c3c(Cl)cccc3Cl)=NO[C@@H]2C(=O)N1c1ccc(Cc2ccc(N3C(=O)[C@H]4C(c5c(Cl)cccc5Cl)=NO[C@H]4C3=O)cc2)cc1 | µM | > | 100
CN(C)CCCC1(c2ccc(F)cc2)OCc2cc(-c3cccc4[nH]ccc34)ccc21 (stereo not given) | µM | = | 3.12
O=C1NC(=N[C@@H](CO)c2ccccc2)S/C1=C\c1ccc2ncccc2c1 | µM | = | 22
CC1(C)OC[C@@H]([C@@]2(CO[Si](c3ccccc3)(c3ccccc3)C(C)(C)C)CC=CC(=O)O2)O1 | µM | = | 9.82
Clc1cccc(-c2sc(-c3cccs3)cc2Cc2cccs2)c1 | µM | > | 10
COC(=O)/C=C(/C(=O)OC)C1(C)c2cc(C(=O)OC)c(C(=O)OC)c(N)c2C(=N)N1c1ccccc1 (stereo not given) | µM | = | 48.9
O=c1c2ccccc2sc2c(CO)ccc(NCCN3CCCCC3)c12 | µM | = | 16.2
C[n+]1cc2cc(O)c(O)cc2c2ccc3cc(O)c(O)cc3c21 | µM | = | 7.77
O=C1/C(=C\c2ccccc2)CN(C(=O)CCN2CCCCC2)C/C1=C/c1ccccc1 | µM | = | 5.52
Cn1nccc1Nc1nccc(-c2ccn([C@H](CO)c3ccc(Cl)c(F)c3)c(=O)c2)n1 | µM | = | 6.91
O=C(/C=C/c1ccc(Cl)cc1)Oc1ccc(C=C2CCC/C(=C\c3ccc(OC(=O)/C=C/c4ccc(Cl)cc4)cc3)C2=O)cc1 | µM | > | 100
CC1CC(N2CCOCC2)=Nc2ccccc2N1C (stereo not given) | µM | > | 100
CCNc1nc(O)c(/C=C2\C=Nc3ncccc32)s1 | µM | = | 3.7
O=C1C=C[C@H](O)[C@@]2(CO)O[C@@H]12 | µM | = | 25.6
COc1ccc(C(=O)c2cc(OC)c(OC)c(OC)c2OC)cc1O | µM | = | 8.96
CN(/N=C1\C(=O)Nc2ccccc21)c1ccccc1 | µM | > | 100
O=C1NC(=O)c2c1n(Cc1ccccc1)c(=O)n2Cc1ccccc1 | µM | > | 100

* * *

- Tested on: SR leukemia
- Procedure text: NCI tumour cell line growth inhibition, 48 h
Parameter: TGI. Scope: all listed entries.
Reported property: TGI

Molecule | Observed value
O=c1c(F)cn2c(=O)n1CCCCCCCn1c(=O)c(F)cn(c1=O)CCCCCCC2 | > 100 µM
Cc1nc(N)nc(CCC(=O)Nc2cccc(C(F)(F)F)c2)c1-c1ccc(Cl)cc1 | 56.8 µM
Cn1c2ccccc2c2ccc3c(c21)C(=O)c1ccc2c4ccccc4n(C)c2c1C3=O | > 100 µM
CSC1=Nc2c(c(C)c(C)n2COC(CO)CO)C2=NC(=O)CN12 | > 100 µM
CCc1cccc(C)c1NC(=O)CCc1nc(=S)[nH][nH]1 | > 100 µM
COC(=O)[C@]1(C)CCC[C@@]2(C)C1CC[C@]13C=C(C(C)C)[C@H](CC21)CC3(Cl)C#N (stereo not given in full) | > 100 µM
COc1ccc(C(=O)c2cc(OC)c(OC)c(OC)c2OC)cc1O | > 100 µM
Cc1c(C)n(-c2ccccc2)c2nc(S(C)=O)nc(S(C)=O)c12 (stereo not given) | 2.82 µM
COc1cc(C)c(CC/C(C)=C/Cc2cc(O)ccc2O)c(C)c1C | > 25 µM
Cc1cccc(NC(=O)c2sc3nc4c(cc3c2N)C(=O)CCC4)c1 | > 100 µM

* * *

- System: M14 melanoma
- Procedure text: NCI tumour cell line growth inhibition, 48 h
Reported property: GI50

Compound | Reported property | Observed value
O=C(Nc1cccc(-n2cc(-c3ccncc3)c(-c3cc(O)cc(Cl)c3)n2)c1)c1ccc(N2CCOCC2)c(C(F)(F)F)c1 | GI50 | 774 nM
COc1cc2c(cc1Nc1nc(N3CCc4ccccc43)c3cc[nH]c3n1)N(C(=O)CN(C)C)CC2 | GI50 | 600 nM
O=C1c2cccc(Oc3ccccc3)c2C(=O)c2cccc(Oc3ccccc3)c21 | GI50 | > 100000 nM
CCNc1nc(O)c(/C=C2\C=Nc3ncccc32)s1 | GI50 | 4450 nM
O=C(OCc1ccc2c(Br)cc(Br)c(O)c2n1)c1cc2ccccc2[nH]1 | GI50 | 763 nM
COc1cc(CNc2nc3cc(N)cc(N)c3nc2-c2ccccc2)cc(OC)c1 | GI50 | 10100 nM
CCCCCOc1ccc(/C=N/Nc2cc(C)nc3ccc(Cl)cc23)cc1 | GI50 | 1760 nM
O=C(/C=C/C12c3ccccc3C(c3ccccc31)C1C(=O)NC(=O)C12)c1ccccn1 (stereo not given) | GI50 | 1830 nM
OC1(c2ccc(Cl)c(C(F)(F)F)c2)CCN(CCCC(c2ccc(F)cc2)c2ccc(F)cc2)CC1 | GI50 | 828 nM
N#CC(C(=O)C(=O)Nc1c(Cl)cccc1Cl)c1ccccc1 (stereo not given) | GI50 | > 100000 nM

* * *

- Test system: SR leukemia
- Procedure text: NCI tumour cell line growth inhibition, 48 h
Reported property: TGI (µM)

Compound | Reported property | Units symbol | Inequality symbol | Observed value
COc1cc(Nc2cnc3ccc(C(F)(F)F)cc3n2)cc(OC)c1OC | TGI | µM | > | 100
O=C(OCc1ccc2c(Br)cc(Br)c(O)c2n1)c1cc2ccccc2[nH]1 | TGI | µM | = | 4.22
CC(=O)Nc1nc(Cl)cc(NCC2(CO)CCC2)n1 | TGI | µM | > | 100
O=C1Oc2ccccc2C(=O)/C1=C1/C=C(c2ccccc2)SS1 | TGI | µM | = | 61.3
N#CC1(c2ccc(NC(=O)c3cccnc3NCc3ccncc3)cc2)CCCC1 | TGI | µM | = | 39.5
Cc1nc(N)c(N2CCN(C#N)CC2)c(=O)[nH]1 | TGI | µM | > | 100
CCOC(=O)c1nc(C)oc1C(F)(F)F | TGI | µM | > | 100
C[C@]12CCC3[C@@H](CCC45OC4C(=O)CC[C@]35C)C1Cc1cnn(-c3ccc(F)cc3)c1N2 (stereo partly specified) | TGI | µM | > | 100
O=c1oc2ccccc2c(O)c1Cc1ccc(Cc2c(O)c3ccccc3oc2=O)cc1 | TGI | µM | > | 100
COc1ccc2ccc3oc(=O)c(C)cc3c2c1 | TGI | µM | > | 100
NCCN1CCCCCc2ccccc21 | TGI | µM | > | 10
Cc1nn(-c2ccc(Cl)cc2)c2ncnc(N/N=C/c3ccccc3O)c12 | TGI | µM | = | 43.5
COc1ccc2c(c1)c(-c1nc(-c3c[nH]c4ncccc34)cs1)cn2CCCN1CCOCC1 | TGI | µM | = | 7
COc1ccc2c(N)ncc(C#Cc3cc(C(=O)Nc4ccc(CN5CCN(C)CC5)c(C(F)(F)F)c4)cnc3C)c2c1 | TGI | µM | = | 1.97
c1ccc(-c2[nH]ncc2-c2ccnc(-c3ccc(OCCn4ccnc4)cc3)c2)nc1 | TGI | µM | > | 25
CN(CCN1CCCC1)C1CCc2cc(Cl)c(Cl)cc2C1 (stereo unspecified) | TGI | µM | = | 74.5
Cc1ccc(-c2cc(-c3ccco3)c(C#N)c(=S)[nH]2)cc1 | TGI | µM | > | 100
COc1cc2c(cc1Nc1nc(N3CCc4ccccc43)c3cc[nH]c3n1)N(C(=O)CN(C)C)CC2 | TGI | µM | = | 1.28
Cn1nc(-c2ccc(S(=O)(=O)/N=C(\NN)Nc3ccc(Cl)cc3)s2)cc1C(F)(F)F | TGI | µM | = | 41.7
CN(C)CCn1c(=O)c2ccc(NCCCN(C)CCCNc3ccc4c(=O)n(CCN(C)C)c(=O)n5c6ccc(O)cc6c(=O)c3c45)c3c(=O)c4cc(O)ccc4n(c1=O)c23 | TGI | µM | = | 0.642
O=C1/C(=C/c2ccc(Cl)c(Cl)c2)CN(C(=O)CCN2CCC(=NO)CC2)C/C1=C\c1ccc(Cl)c(Cl)c1 | TGI | µM | > | 100
